Target: UniProt Q16762
Sequence (Q16762 whole entry): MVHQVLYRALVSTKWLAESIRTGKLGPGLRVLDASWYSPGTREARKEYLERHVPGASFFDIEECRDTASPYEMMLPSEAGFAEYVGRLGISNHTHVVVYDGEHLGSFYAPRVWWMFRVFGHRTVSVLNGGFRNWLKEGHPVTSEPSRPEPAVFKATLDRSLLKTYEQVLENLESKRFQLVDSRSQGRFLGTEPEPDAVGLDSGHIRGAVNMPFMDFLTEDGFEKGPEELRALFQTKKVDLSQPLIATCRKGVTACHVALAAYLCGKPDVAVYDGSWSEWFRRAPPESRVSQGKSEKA
pIC50: −log10 of the molar value.

[
  {
    "MOLECULE": "CCc1oc2ccccc2c1C(=O)c1cc(Br)c(O)c(Br)c1",
    "pIC50": "< 4.00"
  },
  {
    "MOLECULE": "CCCCCCCCCc1ccc(O)cc1",
    "pIC50": 4.14
  },
  {
    "MOLECULE": "COc1ccc(C(=O)/C=C/c2ccccc2)cc1",
    "pIC50": "< 4.00"
  },
  {
    "MOLECULE": "C=C(NC(=O)C(=C)NC(=O)c1csc(C2=N[C@@H]3c4csc(n4)[C@H]4NC(=O)c5csc(n5)[C@H]([C@](C)(O)[C@@H](C)O)NC(=O)[C@H]5CSC(=N5)/C(=C/C)NC(=O)[C@H]([C@@H](C)O)NC(=O)c5csc(n5)[C@]3(CC2)NC(=O)[C@H](C)NC(=O)C(=C)NC(=O)[C@H](C)NC(=O)[C@H]([C@@H](C)CC)N[C@@H]2C=Cc3c([C@H](C)O)cc(nc3[C@H]2O)C(=O)O[C@@H]4C)n1)C(N)=O",
    "pIC50": "< 4.00"
  },
  {
    "MOLECULE": "Oc1ccc(Cl)cc1Cc1cc(Cl)ccc1O",
    "pIC50": "< 4.00"
  },
  {
    "MOLECULE": "CC[C@H](C)[C@H]1O[C@]2(C=C[C@@H]1C)C[C@@H]1C[C@@H](C/C=C(\\C)[C@@H](O[C@H]3C[C@H](OC)[C@@H](O[C@H]4C[C@H](OC)[C@@H](O)[C@H](C)O4)[C@H](C)O3)[C@@H](C)/C=C/C=C3\\CO[C@@H]4[C@H](O)C(C)=C[C@@H](C(=O)O1)[C@]34O)O2",
    "pIC50": "< 4.00"
  },
  {
    "MOLECULE": "C=C1CC[C@H](O)C/C1=C/C=C1\\CCC[C@]2(C)[C@@H]([C@H](C)CCCC(C)C)CC[C@@H]12",
    "pIC50": "< 4.00"
  },
  {
    "MOLECULE": "CC(C)(C)NCC(O)c1ccc(O)c(CO)c1 (centres undefined)",
    "pIC50": "< 4.00"
  },
  {
    "MOLECULE": "CC[C@H](C)C1O[C@]2(C=C[C@@H]1C)C[C@@H]1C[C@@H](C/C=C(\\C)[C@@H](O[C@H]3C[C@H](OC)[C@@H](O[C@H]4C[C@H](OC)[C@H](NC(C)=O)[C@H](C)O4)[C@H](C)O3)[C@@H](C)/C=C/C=C3\\CO[C@@H]4[C@H](O)C(C)=C[C@@H](C(=O)O1)[C@]34O)O2 (some centres undefined)",
    "pIC50": "< 4.00"
  },
  {
    "MOLECULE": "Cc1cc(C(C#N)c2ccc(Cl)cc2)c(Cl)cc1NC(=O)c1cc(I)cc(I)c1O (centres undefined)",
    "pIC50": "< 4.00"
  },
  {
    "MOLECULE": "Oc1c(Cl)cc(Cl)cc1Sc1cc(Cl)cc(Cl)c1O",
    "pIC50": "< 4.00"
  },
  {
    "MOLECULE": "CN(C)c1ccc(C(=C2C=CC(=[N+](C)C)C=C2)c2ccc(N(C)C)cc2)cc1",
    "pIC50": 4.80
  },
  {
    "MOLECULE": "O=C(O[C@@H]1Cc2c(O)cc(O)cc2O[C@@H]1c1cc(O)c(O)c(O)c1)c1cc(O)c(O)c(O)c1 [EPIGALOCATECHIN GALLATE]",
    "pIC50": 5.14
  },
  {
    "MOLECULE": "Nc1ccc(O)c(C(=O)O)c1",
    "pIC50": 6.55
  }
]
